Entries annotated with measured pEC50
# Target Or Test System: UniProtKB P41143
# Procedure Summary: cAMP measurement in δ-opioid-expressing CHO cells (DiscoveRx cAMP Hunter)
# Format: cell-based
# Recorded Conditions: δ-opioid-expressing CHO cells, agonist potency; read-out: EC-50 cAMP
pEC50: −log10 of the molar value.

Smiles Str	pEC50
Cc1nc[nH]c1CN1CCC(=C(c2ccc(C(=O)N(C)C)cc2)c2cccc(C(N)=O)c2)CC1	9.30
CN(C)C(=O)c1ccc(C(=C2CCN(Cc3ccc(C(F)(F)F)nc3)CC2)c2cccc(C(N)=O)c2)cc1	8.55

---

Entries annotated with measured EC50
# Target Or Test System: δ-opioid receptor (DOR) (Homo sapiens, UniProt P41143)
# Sequence (P41143 whole entry): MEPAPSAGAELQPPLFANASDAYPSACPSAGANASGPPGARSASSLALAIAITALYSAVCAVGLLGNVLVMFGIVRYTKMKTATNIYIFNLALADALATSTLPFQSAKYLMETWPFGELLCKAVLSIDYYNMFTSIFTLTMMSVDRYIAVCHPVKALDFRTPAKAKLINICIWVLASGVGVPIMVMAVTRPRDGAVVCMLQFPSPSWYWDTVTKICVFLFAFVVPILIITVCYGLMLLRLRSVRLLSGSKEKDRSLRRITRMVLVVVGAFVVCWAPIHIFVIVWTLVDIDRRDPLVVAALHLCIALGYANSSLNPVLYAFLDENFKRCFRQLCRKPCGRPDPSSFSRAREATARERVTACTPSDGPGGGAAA
# Procedure Summary: β-arrestin recruitment (DiscoveRx Pathunter)
# Type: cell-based
# Recorded Conditions: β-arrestin recruitment, agonist potency; read-out: EC-50 beta-arrestin

Compound	EC50 (nM)
Cc1nc[nH]c1CN1CCC(=C(c2ccc(C(=O)N(C)C)cc2)c2cccc(C(N)=O)c2)CC1 [Example 1c]	3
CN(C)C(=O)c1ccc(C(=C2CCN(Cc3ccc(C(F)(F)F)nc3)CC2)c2cccc(C(N)=O)c2)cc1 [Example 1a]	28
